Tested on: HeLa
Assay: Stabilization of microtubule in human HeLa cells assessed as increase in cellular density of interphase microtubules at 50 uM after 18 hrs by immunofluoroescence analysis
Type: cell-based
Calls of active or inactive are those of the source. The rule behind the calls is not given here.
ASSAY_METRIC: Activity

STRUCTURE_SMILES_STRING	TARGET_ENTITY	ASSAY_METRIC	ENDPOINT_RESULT
CC(=O)O[C@H]1C[C@H]2[C@H]([C@@H]3[C@@H](O)[C@@H]4[C@H]([C@H](C)C=C5OC(=O)[C@@](C)(O)[C@@]54C)[C@]31C)[C@@H](O)C(=O)[C@@]1(O)C[C@@H]3O[C@@H]3[C@H](OC(=O)CC(C)C)[C@]21C	HeLa	Activity	Active
CC(=O)O[C@H]1[C@H]2[C@H]([C@@H]3[C@H]4OC(=O)[C@@](C)(O)[C@@]5(C)C(=O)C[C@@H](C)[C@@H]([C@@H]45)[C@@]3(C)[C@H]1OC(C)=O)[C@@H](O)C(=O)[C@H]1C[C@@H]3O[C@@H]3[C@H](OC(C)=O)[C@]21C	HeLa	Activity	inactive
CC(=O)O[C@H]1C[C@H]2[C@H]([C@@H]3[C@H]4OC(=O)[C@@](C)(O)[C@@]5(C)C(=O)C[C@@H](C)[C@@H]([C@@H]45)[C@]31C)[C@@H](O)C(=O)[C@H]1C[C@@H]3O[C@@H]3[C@H](OC(C)=O)[C@@]12C	HeLa	Activity	inactive
CC(=O)O[C@H]1C[C@H]2[C@H]([C@@H]3[C@@H](O)[C@@H]4[C@H]([C@H](C)C=C5OC(=O)[C@@](C)(O)[C@@]54C)[C@]31C)[C@@H](O)C(=O)[C@@]1(O)C[C@@H]3O[C@@H]3[C@H](OC(C)=O)[C@]21C	HeLa	Activity	Active

This collection of values is drawn from ChEMBL document CHEMBL2406909.
